Experiment: Antiplatelet activity against washed rabbit platelet assessed as inhibition of arachidonic acid-induced platelet aggregation preincubated for 3 mins by turbidimetric method
Type: functional, cell-based
Details: Oryctolagus cuniculus
measured.metric: IC50 (µM)
Express your answer in µM, writing the number without its unit.

Guide cases for IC50, answers given:
compound	unit.info	IC50
COc1cc(CCc2cc(OC)c(OC(C)=O)c(OC)c2)ccc1OC(C)=O [MOSCATILIN DIACETATE]	µM	11.2
COc1cc(O)cc2ccc3cccc(O)c3c12 [MOSCATIN]	µM	37.2

# context switch: different compound, same IC50
Ask: Look up IC50 for this compound: COc1cc(CCc2cc(OC)c(O)c(OC)c2)ccc1O [MOSCATILIN]
Result: 61.8

Data origin, for the record: ChEMBL document CHEMBL1148061
